- System: NCI-H322M lung
- test.description: NCI-60 one-dose screen, 48 h (100 = growth as untreated, 0 = no growth, -100 = all killed)
- condition.notes: 10 µM unless noted
Compounds without any hit were thinned out: in the full panel of roughly 83,000, 20% have a hit. Calls of active or inactive are those of the source. How the source made its calls: active means growth percent below 10; inactive means the rest.

[
  {
    "molecule": "O=S(=O)(Nc1cc(F)cc(Cl)c1)c1ccc(-c2cnc(C3CC3)o2)cc1",
    "assayed.target": "NCI-H322M lung",
    "growth": "44.5% (inactive)"
  },
  {
    "molecule": "COc1ccc(Nc2ncc(Br)c(NCCCNC(=O)c3cccs3)n2)cc1",
    "assayed.target": "NCI-H322M lung",
    "growth": "56.5% (inactive)"
  },
  {
    "molecule": "N#CC1=C(N)Oc2c(ccc3ccccc23)C1c1ccccc1 (stereo not given)",
    "assayed.target": "NCI-H322M lung",
    "growth": "55.6% (inactive)"
  },
  {
    "molecule": "COc1cc(-c2csc(NC(=O)c3ccc(N4CCOCC4)c(C(F)(F)F)c3)n2)cc(OC)c1OC",
    "assayed.target": "NCI-H322M lung",
    "growth": "70.3% (inactive)"
  },
  {
    "molecule": "O=C1c2c(c3c4ccccc4[nH]c3c3ccc4ccccc4c23)C(=O)N1CCN1CCOCC1",
    "assayed.target": "NCI-H322M lung",
    "growth": "51.8% (inactive)"
  },
  {
    "molecule": "CC/C=C\\C[C@H](O)C/C=C1/C(=O)C=C[C@@H]1C/C=C\\CCCC(=O)N(C)C",
    "assayed.target": "NCI-H322M lung",
    "growth": "18.3% (inactive)"
  },
  {
    "molecule": "Cc1ccc(NC(=O)Cn2cc(CN3CCN(c4ccnc5cc(Cl)ccc45)CC3)nn2)cc1",
    "assayed.target": "NCI-H322M lung",
    "growth": "97.7% (inactive)"
  },
  {
    "molecule": "CCN1C(=S)N(c2ccccc2)C2NC(=S)N(/N=C/C=C/c3ccccc3OC)C21 (stereo not given)",
    "assayed.target": "NCI-H322M lung",
    "growth": "45.6% (inactive)"
  },
  {
    "molecule": "C=C1C(=O)O[C@H]2[C@H]1CC/C(Cn1cc(-c3ccccc3)nn1)=C\\CC[C@@]1(C)O[C@@H]21",
    "assayed.target": "NCI-H322M lung",
    "growth": "89.2% (inactive)"
  },
  {
    "molecule": "C=CCc1c(O)c(C(=O)/C=C/c2ccccc2)c(OC)c2ccoc12",
    "assayed.target": "NCI-H322M lung",
    "growth": "61.9% (inactive)"
  }
]
